B1: NF2 (merlin) isoform 7, human, full length (507 aa, lacks exons 2-3 = isoform-1 residues 39-121; exon-16 C-terminus), P35240-4 (parent)
chain: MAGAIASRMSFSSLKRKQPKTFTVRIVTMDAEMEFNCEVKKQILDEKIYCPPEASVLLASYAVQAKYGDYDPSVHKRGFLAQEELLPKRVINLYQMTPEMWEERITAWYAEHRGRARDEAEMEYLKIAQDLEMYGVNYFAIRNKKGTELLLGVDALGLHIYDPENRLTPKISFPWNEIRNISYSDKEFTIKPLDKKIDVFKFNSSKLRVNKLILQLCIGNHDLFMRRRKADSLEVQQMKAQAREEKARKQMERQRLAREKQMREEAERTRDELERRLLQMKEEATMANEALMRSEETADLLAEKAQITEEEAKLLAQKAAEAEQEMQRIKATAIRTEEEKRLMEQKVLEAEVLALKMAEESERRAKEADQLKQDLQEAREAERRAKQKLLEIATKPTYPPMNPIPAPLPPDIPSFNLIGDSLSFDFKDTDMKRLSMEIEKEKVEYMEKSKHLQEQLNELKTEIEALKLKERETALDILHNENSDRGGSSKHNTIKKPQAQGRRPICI

# Variants of: B1
# methodNotes: reverse yeast two-hybrid deep mutational scan (rY2H-seq): NF2 isoform 7 mutant library as bait mated with wild-type prey strains; selection on medium lacking adenine for non-interacting pairs; NextSeq paired-end sequencing; enrichment vs …
# conditionsUsed: with PIK3R3 (phosphatidylinositol 3-kinase regulatory subunit gamma), Q92569; yeast diploids after mating (RBait_S3 x RPrey_S3), 30 °C, selection for reporter genes on NB agar; human tyrosine kinase ABL2 co-expressed as the active kinase …; HIGHER = WEAKER BINDING (the opposite of display enrichments): higher = stronger loss of interaction: reverse Y2H selects yeast in which bait and prey do NOT interact (growth without adenine), so a …; hits-only table; scale: rY2H score; numbering: uniprot, sequence starts at 1
endpointLabel: enrichment

F173T = 11
T285L = 6.05
D369K = 4.98
M262D = 15.7
K460L = 10.6

I: E323K
II: E164L
Qu. Field: lower enrichment | Options: I / II State the label of the item chosen.
Ans. II

1: A385E
2: H159L
Qu. Field: lower enrichment | Options: 1 / 2 State the label of the item chosen.
Ans. 1

Values compiled from paper PMC10244618.
